The reported numbers originate from PubChem BioAssay AID2732.

experiment: blockers of ER-stress CHOP reporter expression – cell-based, unfolded protein response, luciferase reporter, primary screen (AID 2732); conditions: CHO-K1 CHOP-promoter luciferase, tunicamycin-induced, 15-18 h; at 10 µM; hits give high values;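 also: 0% = tunicamycin plus vehicle and 100% = wells without tunicamycin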
Out of some 220,000 compounds screened, about 8,200 (3.7%) were called active. The sample holds actives, similar compounds and a random draw of the others, so the mix is not that of the screen.
The compounds listed here are annotated with their inhibition.
Respond with the bare value in %.

Check out these entries, answers already filled in.
>  <STRUCTURE_AS_SMILES>
Cc1cc(N2CCOCC2)nc2ccc(NC(=S)N3CCN(Cc4ccccc4)CC3)cc12

>  <inhibition / %>
80.6

$$$$
>  <STRUCTURE_AS_SMILES>
COc1ccccc1NC(=O)CSc1nc2sc(C)c(C)c2c(=O)n1Cc1ccco1

>  <inhibition / %>
-22.1

$$$$
>  <STRUCTURE_AS_SMILES>
CCn1c2ccccc2c2cc(NC(=S)N3CCOCC3)ccc21

>  <inhibition / %>
30.3

$$$$

response.value for c1ccc(-c2noc(-c3cccs3)n2)nc1 (field: inhibition) = 22.5

response.value for CSc1sc(C(=O)NC(=O)NCc2cccnc2)c(C)c1-c1ccon1 (field: inhibition) = 28.4

response.value for O=[N+]([O-])c1ccc(N2CCSCC2)cc1O (field: inhibition) = 13.8

response.value for O=C(Oc1ccccc1)c1ccc2nccnc2c1 (field: inhibition) = -6.68

response.value for Nc1nc(CC(=O)CSc2ccc(Cl)cc2)nc(Nc2ccc(F)cc2)n1 (field: inhibition) = 81.9

---

assay: blockers of ER-stress CHOP reporter expression – cell-based, unfolded protein response, luciferase reporter, primary screen (AID 2732); settings: CHO-K1 CHOP-promoter luciferase, tunicamycin-induced, 15-18 h; at 10 µM;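 also: 0% = tunicamycin plus vehicle and 100% = wells without tunicamycin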
Screen size: about 220,000 compounds; about 8,200 (3.7%) were called active.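 How the source made its calls: active means compounds that reduced the stress-induced luciferase reporter signal by more than about 70% of percent inhibition (limit read from the data); inactive means the rest.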 This excerpt belongs to a sample that is enriched for actives.
Field 'call' accepts active, inactive

>  <COMPOUND>
Cn1c(=O)c2c(nc(SCC(=O)Nc3ccccc3N3CCCCC3)n2C)n(C)c1=O

>  <CLASS_ASSIGNMENT>
inactive

$$$$

Input line: Fill in: this test's call for Cc1cc(SCC(=O)c2ccccc2)nc(SCC(=O)c2ccccc2)n1 is ___
Output line: inactive

Input line: Fill in: this test's call for FC(F)(F)c1nc(-c2ccccc2)ncc1-c1nnnn1-c1ccccc1 is ___
Output line: inactive

Input line: Fill in: this test's call for CCOC(=O)C1=C(C)NC(=O)NC1c1ccccc1 (centres undefined) is ___
Output line: inactive

Input line: Fill in: this test's call for COCCN(C(=S)Nc1cccc(Cl)c1C)C(C)c1ccco1 (centres undefined) is ___
Output line: inactive

Input line: Fill in: this test's call for CC(C)(C)Oc1ncc(Br)c(OC(C)(C)C)n1 is ___
Output line: inactive

Input line: Fill in: this test's call for O=C(O)C(F)(F)C(NCc1ccccc1)c1ccccc1 (centres undefined) is ___
Output line: inactive

Input line: Fill in: this test's call for CCOC(=O)CN/C=C(\C#N)c1ccc(F)cc1 is ___
Output line: inactive

Input line: Fill in: this test's call for Cc1cc(Oc2ccc(Cl)cc2)nc(SCC(=O)c2ccccc2)n1 is ___
Output line: active

Input line: Fill in: this test's call for CCOC(=O)C1=C(C)NC(C)=C(C(=O)OCC)C1c1ccccn1 is ___
Output line: inactive

Input line: Fill in: this test's call for COC(=O)c1cc(C(=O)CSc2nc(C)cc(C)n2)ccc1O is ___
Output line: inactive

Input line: Fill in: this test's call for Cc1ccc(OCC(O)CN2CCN(CC(O)COc3ccc(C)cc3Cl)CC2)c(Cl)c1 (centres undefined) is ___
Output line: active

Input line: Fill in: this test's call for O=C(COC(=O)c1ccc[nH]c1=O)Nc1ccc2c(c1)OC(F)(F)O2 is ___
Output line: inactive

Input line: Fill in: this test's call for COc1cccc(-c2nc3cc(C)ccc3o2)c1 is ___
Output line: inactive

Input line: Fill in: this test's call for COCCNc1nc(-c2ccccc2)nc2c1oc1ccccc12 is ___
Output line: inactive

Input line: Fill in: this test's call for Cc1ccccc1NC(=O)Nc1ccccc1N1CCCCC1 is ___
Output line: inactive
